Below, IC50 values reported for ROCK2 (Homo sapiens) across several publications.
measured quantity: IC50

[
  {
    "compound": "Cn1cc(C(=O)Nc2cc(-n3nc(Nc4ccc5[nH]ncc5c4Cl)c4ccccc43)ccn2)cn1",
    "value measured": "< 300 nM"
  },
  {
    "compound": "CCOC(=O)C1CN(Cc2ccccc2)C(=O)N1c1ccc(-c2cn[nH]c2)cc1 (stereo not drawn)",
    "value measured": "20.1 to 200 nM"
  },
  {
    "compound": "COc1cc(F)cc([C@@H](CO)NC(=O)N2CCc3cc(-c4c[nH]nc4F)c(F)cc32)c1",
    "value measured": "≤ 50 nM"
  },
  {
    "compound": "CN(C)S(=O)(=O)c1ccc2c(c1)CCN2C(=O)NC1CC2(C1)CC(c1n[nH]c(=O)c3ccccc13)C2 (stereo not drawn)",
    "value measured": "5.1 to 15 nM"
  },
  {
    "compound": "O=C1N(Cc2ccccc2)CCN1c1ccc(-c2cn[nH]c2)cc1",
    "value measured": "2.1 to 20 nM"
  },
  {
    "compound": "[2H]C([2H])([2H])n1cc(-c2ccc(C(=O)N[C@H]3CC4(C3)C[C@H](c3n[nH]c(=O)c5ccccc53)C4)cc2F)cn1 (stereo partly drawn)",
    "value measured": "5.1 to 15 nM"
  }
]
